Documented koff across a set of binders
- target_or_test_system: SARS-CoV-2 spike protein (SARS-CoV-2, UniProt P0DTC2 14-1208)
# output: bare number, implied unit s⁻¹

binder="antibody 402 (antibody, V domains shown) VH: QVQLVQSGAEVKKPGASVKVSCKVSGYTLTELSMHWVRQAPGKGLEWMGGFDPEDVETIYAQKFQGRVTMTEDTSTDTAYMELSSLRSEDTAVYYCATGVAVVGTSHSYYYYYGMDVWGQGTTVTVSS VL: DIQMTQSPSSLSASVGDRVTITCRASQGISNYLAWYQQKPGKVPKLLIYAASTLQSGVPSRFSGSGSGTDFTLTISSLQPEDVATYYCQKYNSAPFTFGPGTKVDIK" unit_symbol=s⁻¹ data_value=6.48e-05

Task: What value of measured koff is listed for antibody 433 (antibody, V domains shown) VH: QVQLVESGGGVVQPGRSLRLSCAASGFTFSSYAMHWVRQAPGKGLEWVAVISYDGSNKYYADSVKGRFTISRDNSKNTLYLQMNSLRAEDTAVYYCAKDYEVVIAIGGPGAFDYWGQGTLVTVSS VL: SYVLTQPPSVSVAPGKTARITCGGNNIGSKSVHWYQQKPGQAPVLVIYYDSDRPSGIPERFSGSNSGNTATLTISRVEAGDEADYYCQVWDSSSDHVVFGGGTKLTVL ?
Result: 0.000349

Task: What value of measured koff is listed for antibody 394 (antibody, V domains shown) VH: QVQLVQSGAEVKKPGASVKVSCKASGYTFTGYYMHWVRQAPGQGLEWMGWINPNNGGTNSAQKFQGRVTMTRDTSISTAYMELNRLRSDDTAVYYCARDITTTAGTDYYYGMDVWGQGTTVTVSS VL: SYELTQPPSVSVSPGQTARITCSGDALPKQYAYWYQQKPGQAPVLVICKDSERPSGIPERFSGSSSGTTVTLTISGVQAEDEADYYCQSADSSGTYIVFGTGTKVTVL ?
Result: 3.52e-05

Task: What value of measured koff is listed for antibody 441 (antibody, V domains shown) VH: EVQLVESGGGVVRPGGSLRLSCAASGFTFGDYGMSWVRQAPGKGLEWVSGINWNGGSTGYADSVKGRFTISRDNAKNSLYLQMNSLRAEDTALYYCASDLVRGVIGFDYWGQGTLVTVSS VL: SYELTQPPSVSVSPGQTARITCSGDALPKQYAYWYQQKPGQAPVLVIYKDSERPSGIPERFSGSSSGTTVTLTISGVQAEDEADYYCQSADSSGITGVFGGGTKLTVL ?
Result: 0.000318
